- PROTOCOL DETAILS: soluble fraction after stress (log2 fold change); higher = more stays soluble; pooled small domains, quantitative proteomics
- ASSAY CONTEXT: stress: 50 degC
Could you label it Criterion met if measured soluble fraction (log2) is -0.01 or higher, and Criterion not met otherwise?

Check out these entries, answers already filled in.
>>> category_label("HMSMSVLFSELDQKDAGVIVEKLKERKIPYELQSGGSAIMVPANVLHETRLQLAAEGLPQSS")
"Criterion met"
>>> category_label("HMTKLSPKEKSILHIIGDNAGIKSGQIAKRLDIPSPTVKRILSDLVSQNLIEKFGTGPGTNYSI")
"Criterion met"
>>> category_label("HMGGYVVVGDKDGFWSVVSTPVSKAKAEELLKDTTFPKGEKGKIVSVAEAMSHKKVIGKEYLESGGT")
"Criterion met"
>>> category_label("HMPPRFVPATGADLRRWLDVSGLTAEAAGDLLGVSGARFRQWLSRYRSAPLPDPVRALLVALLRP")
"Criterion not met"
>>> category_label("HMRPSGEAVNAAYRLLKGANPSGNEGDLIQRAQEVAAILPKLNRSSAAAFAKDAKANGLTQAETIALWKGS")
"Criterion met"
>>> category_label("HMGIEIKLLMSFMTDSGRKVSLFVTDPREDVTETEIKQVMDLIIEKNIFAPNGEDIVSAKEAKIVQT")
"Criterion not met"

Check the entry `HMPPSRFNELSMWFQEQLTEAGLKVDSGALKMLIEWLGQDQARLPSIIEVLVSTYGTKKKLTVDEIEPFL` : does soluble fraction (log2) equal or exceed -0.01?
Criterion met

Check the entry `HMGSFDDAPDQLRQSILQLLAEGPLPPSAITERLNISREDATEALQQLLDEQRIFAVNGMLQLQPG` : does soluble fraction (log2) equal or exceed -0.01?
Criterion not met

Check the entry `HMFNISEKLKKYRNALGLTQTEVAEKIEITKPTYASYEKGKDISIGTLKKLADLFEVSFESFFSE` : does soluble fraction (log2) equal or exceed -0.01?
Criterion not met

Check the entry `HMTLLVPASKEAILGGLAKIDALKVILKPEKDYSKTHAMTIGTKDEVIAKLDSFLSGMDSEKNQVLIQEYM` : does soluble fraction (log2) equal or exceed -0.01?
Criterion met

Check the entry `HMTEFFNMQDMFYFKLTGDVTSKERRQSLGKILGIGYGNAAQMVSRLNNYGITKEEFTNAINEIEKQMEAG` : does soluble fraction (log2) equal or exceed -0.01?
Criterion not met

Check the entry `HMVARPVLQIGSTGADVTAIQARLGVSQTGYFGVLTAAAVTNFQRSNGIAASGKVGATTWAKLMQSA` : does soluble fraction (log2) equal or exceed -0.01?
Criterion not met

Check the entry `HMSSPDMSLLYSELDVKDSGQIVTILEQRNIPYEVRNNGSQIYIPSNNVQRIRLSLAQEGLPSG` : does soluble fraction (log2) equal or exceed -0.01?
Criterion not met
